- System: i.p. implanted L-1210 leukemia
- test description: Antitumor activity against i.p. implanted L-1210 leukemia in mice
- Assay type: in vivo
- settings: Mus musculus, L1210, ip, read-out: Percent T/C (mean survival days treated/control × 100), 50 mg/kg/day × 5 i.p.
Reported response vs control in vivo at 50 mg/kg values for a set of molecules

Exam item: Determine reported response vs control in vivo at 50 mg/kg for C[C@@H]1C[C@H]2[C@@H]3CCC4=CC(=O)C=C[C@]4(C)[C@@]3(F)[C@@H](O)C[C@]2(C)[C@@]1(O)C(=O)COP(=O)(O)OC[C@H]1O[C@@H](n2ccc(N)nc2=O)[C@@H](O)[C@@H]1O ; test system: i.p. implanted L-1210 leukemia.
Marked response: 150%

Exam item: Determine reported response vs control in vivo at 50 mg/kg for C[C@]12C=CC(=O)C=C1CC[C@@H]1[C@@H]2C(=O)C[C@@]2(C)[C@H]1CC[C@]2(O)C(=O)CO[P+]([O-])(O)OC[C@H]1O[C@@H](n2ccc(N)nc2=O)[C@@H](O)[C@@H]1O (some centres unmarked) ; test system: i.p. implanted L-1210 leukemia.
Marked response: 210%
